- target_under_test: T1, human Dectin-1 (biosensor tests of Tables 3, 4A and 9; construct not stated) (human, UniProt Q9BXN2 66-247, limits assumed);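 also: Single-point dissociation rate (koff) fit for each variant binding domain, expressed as change versus the parental clone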
- T1 construct: also called hDectin-1
- T1 sequence (looked up): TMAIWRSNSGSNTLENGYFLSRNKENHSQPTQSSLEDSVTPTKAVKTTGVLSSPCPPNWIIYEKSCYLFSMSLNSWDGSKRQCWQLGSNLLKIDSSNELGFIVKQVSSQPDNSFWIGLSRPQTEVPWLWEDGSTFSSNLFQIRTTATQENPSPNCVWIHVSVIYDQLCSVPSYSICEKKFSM
- assay_notes: Octet
observed_property: delta (%)
Give bare numbers, in %.

binder	unit_descriptor	delta
2M24A.1.24 (Fab, V domains shown, Fab; also called 2M24.1.24) VH: QVQLVQSGAEVKKPGASVKVSCKSSGYTFTDYYIHWVRQAPGQGLEWMGWINPNSGDTNYAQKFQGRITMTRDTSISTAYLELSRLRSDDTAVFYCARNSGSYSFGYWGQGTLVTVSS VL: DIQMTQSPSSVSASVGDRVTITCRASQGISSWLAWYQQKPGKAPKLLIFGASSLQSGVPSRFSGSGSGTDFTLTVSSLQPEDFATYYCQAAYSFPFTFGPGTKVDIE	%	36
2M24A.1.27 (Fab, V domains shown, Fab; also called 2M24.1.27) VH: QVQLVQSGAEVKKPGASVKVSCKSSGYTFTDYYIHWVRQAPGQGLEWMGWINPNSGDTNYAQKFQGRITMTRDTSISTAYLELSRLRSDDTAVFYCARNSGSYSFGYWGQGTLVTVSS VL: DIQMTQSPSSVSASVGDRVTITCRASQGISSWLAWYQQKPGKAPKLLIFGASSLQSGVPSRFSGSGSGTDFTLTVSSLQPEDFATYYCQQAYSFAFTFGPGTKVDIE	%	19

We next turn to a different binder, shown below.
Request the reported delta associated with 2M24A.1.10 hFab (Fab, V domains shown, Fab; also called 2M24.1.10) VH: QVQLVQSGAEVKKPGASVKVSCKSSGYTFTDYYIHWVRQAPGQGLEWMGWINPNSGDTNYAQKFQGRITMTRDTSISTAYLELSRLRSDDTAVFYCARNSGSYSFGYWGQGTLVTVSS VL: DIQMTQSPSSVSASVGDRVTITCRASQGISSWLAWYQQKPGKAPKLLIFGASSLQSGVPSRFSGSGSGTDFTLTVSSLQPEDFATYYCQQAFSFPFTFGPGTKVDIE
18
